- Method Description: background-corrected fluorescence of 3'-dye-labeled ssDNA relative to brightest sequence (3'-GCGCG) (fraction); higher = brighter dye fluorescence (less quenching)
- Particulars: dye: Cy3 (3' terminal)
Property Label: background-corrected fluorescence

Sequence Text: TTTTTTGAGCAGCATGCTGCTTTTTTTTTTTTTTTCTTAA [AATTC]
Result: 0.562

Sequence Text: TTTTTTGATGCGCAGCATGATTTTTTTTTTTTTTTCATTC [CTTAC]
Result: 0.398

Sequence Text: TTTTTTGATCATCAGCATGCTTTTTTTTTTTTTTTCGGTA [ATGGC]
Result: 0.589

====

- Method Description: background-corrected fluorescence of 3'-dye-labeled ssDNA relative to brightest sequence (3'-GCGCG) (fraction); higher = brighter dye fluorescence (less quenching)
- Particulars: dye: Cy5 (3' terminal)
Given measured background-corrected fluorescence, output 1 if it is greater than or equal to 0.3 and 0 if not.

Sequence Text: TTTTTGCATCATCATCATCATTTTTTTTTTTTTTTTGGGG [GGGGT]
Label: 1
//
Sequence Text: TTTTTGCAGCATGCTGCTCATTTTTTTTTTTTTTTTTAAG [GAATT]
Label: 1
//
Sequence Text: TTTTTTGATGATCAGCAGCATTTTTTTTTTTTTTTCCGTT [TTGCC]
Label: 1
//
Sequence Text: TTTTTTGATGATGATCATCATTTTTTTTTTTTTTTCCCGG [GGCCC]
Label: 1
//
Sequence Text: TTTTTGCATCAGCATGATGATTTTTTTTTTTTTTTTGTCC [CCTGT]
Label: 0
//
Sequence Text: TTTTTTGAGCATGAGCATGATTTTTTTTTTTTTTTCTCTC
Label: 0
//
Sequence Text: TTTTTTGATGATGCTCATCATTTTTTTTTTTTTTTCCAGG [GGACC]
Label: 1
//
Sequence Text: TTTTTGCAGCATGCGCATGATTTTTTTTTTTTTTTTTATC [CTATT]
Label: 1
//
Sequence Text: TTTTTTCATGATGAGCATGATTTTTTTTTTTTTTTGCCTC [CTCCG]
Label: 0
